Structures can show the parent of a compound that is named as a salt.

- compound: "COc1ccc(C(O)c2cc3ccncc3[nH]2)cc1 (stereo not drawn) [Example 99]"
  melting point: "183 to 185 °C (dec.)"
- compound: "O=C(c1ccccc1)c1cc2cc(Cl)ncc2[nH]1 [Example 73]"
  melting point: "194 to 197 °C"
- compound: "c1ccc(C(=NOC2CCCNC2)c2cc3ccncc3[nH]2)cc1 (single isomer, unassigned) (as salt: hydrochloride)"
  melting point: "240 to 245 °C (dec.)"
- compound: "NCCO/N=C(/c1ccc(Cl)cc1)c1cc2ccncc2[nH]1 (single isomer, unassigned) (as salt: trifluoroacetate) [Example 126]"
  melting point: "146 to 150 °C"
- compound: "O=C(c1ccccc1)c1cc2ccnc(Cl)c2[nH]1 [Example 29]"
  melting point: "152 to 153 °C"
- compound: "Cl.NCCO/N=C(\\c1ccccc1)c1cc2ccncc2[nH]1 [Example 67]"
  melting point: "176 to 184 °C (dec.)"
- compound: "O=C(c1ccccn1)c1cc2ccncc2[nH]1 [Example 122]"
  melting point: "219 to 222 °C"
- compound: "Cc1ccc(C(=O)c2cc3ccncc3[nH]2)cc1 [Example 100]"
  melting point: "264 to 268 °C (dec.)"
- compound: "NCc1cc2ccncc2[nH]1 (as salt: hydrochloride)"
  melting point: "302 to 303 °C"
- compound: "CC(C)(C)OC(=O)NCCO/N=C(\\c1ccccc1)c1cc2ccncc2[nH]1 [Example 60]"
  melting point: "84 to 88 °C"
- compound: "OCc1cc2ccnc(Cl)c2[nH]1 [Example 1]"
  melting point: "185 to 187 °C"
- compound: "OC(c1ccc(Cl)cc1)c1cc2ccncc2[nH]1 (stereo not drawn) [Example 101]"
  melting point: "176 to 180 °C"
- compound: "NCCON=C(c1ccc(Cl)c(Cl)c1)c1cc2ccncc2[nH]1 (as salt: trifluoroacetate) [Example 134]"
  melting point: "64 to 68 °C"
- compound: "CC(C)C(=O)c1cc2ccncc2[nH]1 [Example 80]"
  melting point: "224 to 228 °C"
- compound: "CON=C(c1ccccc1)c1cc2ccncc2[nH]1.Cl [Example 120]"
  melting point: "202 to 203 °C"

Cited source for all entries: patent US7608627B2
